Quick reference: Thioflavin T fluorometry % Inhibition of the listed items.
- TESTED TARGET: Aβ 1-42 fibrils (Homo sapiens, UniProt P05067)
- Construct: pre-fibrillized human Aβ 1-42 (rPeptide); purchased rPeptide
- Sequence (P05067 672-713 limits assumed): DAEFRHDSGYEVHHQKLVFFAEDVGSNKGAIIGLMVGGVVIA
- EXPERIMENTAL DETAILS: Thioflavin T fluorometry, disruption of pre-fibrillized Aβ 1-42
- Format: biochemical
- CONDITION NOTES: compound:peptide molar ratio 1:1; 2-day incubation
Number only, in %; omit the unit.

Some solved entries appear below for comparison.
Cn1c(=O)c2c(nc(-c3ccc(O)c(O)c3)n2C)n(C)c1=O [PD-153] | 6
Cn1c(=O)c2c(ncn2C)n(C)c1=O [Caffeine, reference compound] | 0
Cn1c(=O)n(Cc2ccc(O)c(O)c2)c(=O)c2c1ncn2Cc1ccc(O)c(O)c1 [PD-151] | 56
Cn1cnc2c1c(=O)n(Cc1ccc(O)c(O)c1)c(=O)n2Cc1ccc(O)c(O)c1 [PD-150] | 67

Query: Item Cn1c(=O)c2c(ncn2Cc2ccc(O)c(O)c2)n(Cc2ccc(O)c(O)c2)c1=O [PD-152] with Aβ 1-42 fibrils (Homo sapiens, UniProt P05067) - Thioflavin T fluorometry % Inhibition?
Reply: 54

* * *

Quick reference: Congo Red Binding % Inhibition of the listed items.
- TESTED TARGET: Aβ 1-42 fibrils (Homo sapiens, UniProt P05067)
- Construct: pre-fibrillized human Aβ 1-42 (rPeptide); purchased rPeptide
- EXPERIMENTAL DETAILS: Congo red binding assay, Aβ 1-42 fibrils
- Format: biochemical
- CONDITION NOTES: compound:peptide molar ratio 5:1; 2-day incubation
- Procedure: In the Congo red binding assay the ability of a test compound to alter β-amyloid binding to Congo red is quantified. In this assay, Aβ 1-42 (as prepared for the Thio T assay) and test compounds were incubated for 2 days and then vacuum filtered through a 0.2 μm filter. The amount of Aβ 1-42 retained in the filter was then quantitated following staining of the filter with Congo red. […]
Number only, in %; omit the unit.

Some solved entries appear below for comparison.
Cn1c(=O)c2c(ncn2Cc2ccc(O)c(O)c2)n(Cc2ccc(O)c(O)c2)c1=O | 48
Cn1c(=O)c2c(ncn2C)n(C)c1=O [Caffeine, reference compound] | 0

Query: Query (compound): "Cn1c(=O)n(Cc2ccc(O)c(O)c2)c(=O)c2c1ncn2Cc1ccc(O)c(O)c1" ; field requested: Congo Red Binding % Inhibition
Reply: 47

Query: Query (compound): "Cn1c(=O)c2c(nc(-c3ccc(O)c(O)c3)n2C)n(C)c1=O" ; field requested: Congo Red Binding % Inhibition
Reply: 19

Query: Query (compound): "Cn1cnc2c1c(=O)n(Cc1ccc(O)c(O)c1)c(=O)n2Cc1ccc(O)c(O)c1" ; field requested: Congo Red Binding % Inhibition
Reply: 46

* * *

Quick reference: Thioflavin T fluorometry-% Inhibition of the listed items.
- TESTED TARGET: α-synuclein fibrils (Homo sapiens, UniProt P37840)
- Construct: purchased rPeptide, Bogart, Calif
- EXPERIMENTAL DETAILS: Thioflavin T fluorometry, disruption of pre-formed α-synuclein fibrils
- Assay type: biochemical
- CONDITION NOTES: compound:peptide molar ratio 10:1; 2-day incubation
Number only, in %; omit the unit.

Some solved entries appear below for comparison.
Cn1c(=O)c2c(nc(-c3ccc(O)c(O)c3)n2C)n(C)c1=O | 37
Cn1cnc2c1c(=O)n(Cc1ccc(O)c(O)c1)c(=O)n2Cc1ccc(O)c(O)c1 | 84
Cn1c(=O)c2c(ncn2Cc2ccc(O)c(O)c2)n(Cc2ccc(O)c(O)c2)c1=O | 86

Now look at this one.
Query: Query (compound): "Cn1c(=O)n(Cc2ccc(O)c(O)c2)c(=O)c2c1ncn2Cc1ccc(O)c(O)c1" ; field requested: Thioflavin T fluorometry-% Inhibition
Reply: 89

* * *

- TESTED TARGET: wild-type α-synuclein (Homo sapiens, UniProt P37840)
- EXPERIMENTAL DETAILS: Thioflavin T fluorometry, inhibition of formation of α-synuclein β-sheet from fresh α-synuclein
- Assay type: biochemical
- CONDITION NOTES: compound:peptide molar ratio 10:1
Output T for ThioT Assay % Inhibition not less than 80%; output F otherwise.

Look over these answered cases.
Cn1c(=O)c2c(ncn2C)n(C)c1=O [Caffeine, reference compound] | F
Cn1c(=O)c2c(ncn2Cc2ccc(O)c(O)c2)n(Cc2ccc(O)c(O)c2)c1=O | F

// switching to the query compound
Query: Check the entry "Cn1cnc2c1c(=O)n(Cc1ccc(O)c(O)c1)c(=O)n2Cc1ccc(O)c(O)c1" : does ThioT Assay % Inhibition equal or exceed 80%?
Reply: T

Entry source: patent US9169255B2
